molecular target: G12V-mutant human KRAS (amino acid residues 1-188) (Homo sapiens, UniProt P01116, G12V); construct: G12V-mutant human KRAS (amino acid residues 1-188) with FLAG tag was purified from E. coli; made in house; host or cells: E. coli; experiment: KRAS Binding Competition Assay (AlphaScreen; biotinylated KRpep-2d analogue), G12V; conditions: geometric mean, read-out: KRAS GMean IC50 (uM) MUTATION: G12V
outcome-measure: IC50

# batch: return IC50 for each of the 3 compounds below
1. CO[C@@H]1C[C@@H](COc2nc(N3C[C@H]4CC[C@@H](C3)N4)c3ccc(-c4cc(O)cc5ccccc45)cc3n2)N(C)C1
2. O=C(N[C@H]1CC[C@H](O)C1)N1[C@@H]2CC[C@H]1CN(c1nc(OCC34CCCN3CCC4)nc3cc(-c4cc(O)cc5ccccc45)ccc13)C2
3. CN1CCC[C@H]1COc1nc(N2CC3CCCC2CN3C(=O)NC2CCOC2)c2ccc(-c3cc(O)cc4ccccc34)c(F)c2n1 (stereo partly drawn)

["0.0001 to 10 µM", "0.0001 to 10 µM", "0.0001 to 10 µM"]
